In this section, each of the molecules is paired with its reported GI50.
System: A498
run.description: NCI tumour cell line growth inhibition, 48 h
Activity calls are given as the source filed them. No stated cut-off is given here; in the data, active = GI50 up to about 1.1 µM and inactive = higher.

{"columns": ["molecule", "result.value"],
 "data": [
  ["CCCCCCCCCCCCCCCCC1=CC(=O)C=C(OC)C1=O", "48.5 µM (inactive)"],
  ["O=C(Nc1c(Cl)cc([N+](=O)[O-])cc1Cl)C(=O)C1C(=O)NC(=S)NC1=O", "> 100 µM (inactive)"],
  ["COC(=O)c1n[nH]c(C)c1/N=N/N(C)CCC#N", "76 µM (inactive)"],
  ["CC(=O)OCC1OC(Nc2nc(O)n(C)c(=O)c2-c2csc(N)n2)C(OC(C)=O)C(OC(C)=O)C1OC(C)=O (stereo not given)", "> 100 µM (inactive)"]
]}

Sample OC1CCCC1C(O)(C(F)(F)F)C(F)(F)F (stereo not given) — what was its GI50?
> 100 µM (inactive)
